- experimentSummary: yeast display, Sf9 membrane polyspecificity reagent, FACS + sequencing; frameworks hold sequencing errors
assayEndpoint: polyreactivity (PSR sort gate)

QVQLQESVGGLVHAGGSLRLSCAASGSISAVGAMGWYRQAPGKEREFAASVNWGTNTNYADSVKGRFTISRDNAKNTLYLQMNSLKPEDTAVYYCAVLPDWETRHDYWGHGTQVTVSS    low polyreactivity
QVQLQESGVGLVQAGGCLSCTASCTIFGQGDMCWYRQAPGKERELVATINDGASTYYADSVKGRFTISRDKAKNTVYLQMKSLKPDVTAVYYCAVFTDITTYFGYWGQGTQVTVSS    low polyreactivity
QVQLVESGGGLVQAGGSLRLSCAASGFIFARYAMGWYRQAPGKERELVASITRRGGSTYYADSVKGRFTISRDNAKNTVYLQMNSLKPEDTAVYYCARPNLLSGDYWGQGTQVTVSS    high polyreactivity
QVQLVESGGGLVQAGGSLRLSCAASGSIILPNTMGWYRQAPGKERELVASISWNGGRTYYADSVKGRFTISRDNAKNTVYLQMNSLKPEDTAVYYCNADFRYPRVRYDYWGQGTQVTVSS    low polyreactivity

Lookup: // lookup polyreactivity (PSR sort gate) for QVQLVESAGVLVQAGGILRLSFAASGINFPYYAMGWYRKAPGKERELVAAISSSGGSSYYADSVKGRFTISRDNAKNTVYLKLNILKPEDTAVYYCAAHRYINYEYWGQGTQLTVSS
Found: high polyreactivity

Lookup: // lookup polyreactivity (PSR sort gate) for QVQLVDSAAGLVQARRSLRLSCAASGRTFPLNVMGWYRLAPGKEREFVAAIRWNGGSTYYADSVKGRFTISRDHAKNTVYLQLNCLIPEDTSVYYCAAQLFRRGRYAGNPMDYWGQGTQVTVSS
Found: high polyreactivity

Lookup: // lookup polyreactivity (PSR sort gate) for QVQLVESGGGLVQAGGSLRLSCAASGNTDVGYAMGWYRQAPGKETEFVAAISSRTGRTYYADTVKGRFTISRDNAKNTVFLQMISLKPEDTAVYYCAAVRGAPRYRYDYWGQGTQVTVSS
Found: high polyreactivity

Lookup: // lookup polyreactivity (PSR sort gate) for QVQLVESGGGLVQAGGSLRLSCAASGFTFSSNGMGWYRQAPGKERELVAAITRRGGSTYYADSVKGRFTISRDNAKNTVYLQMNSLKPEDTAVYYCAARRSGTYYGTYKSNGRNYWGQGTQVTVSS
Found: high polyreactivity

Lookup: // lookup polyreactivity (PSR sort gate) for QVQLVESGGGLVQAGGSLRLSCAASGSTFIFNAMGWYRQAPGKERELVAAISWRLGRTYYADSVKGRFTISRDNAKKTVYLQMNSLKPEDTAVYYCARDYSRHKGDYWGQGTQVTVSS
Found: low polyreactivity

Lookup: // lookup polyreactivity (PSR sort gate) for QVQLVESGGGLVQAGGSLRLTCAASGSTFYFNAIGWYRQAPGKESELVAAISGGGRTNYADSVKGRFTISRDNAKNTVYLQMNSLKPEDTAVYYCAARNRGLRLSNYFGGNYNRDYWGQGTQVTVSS
Found: low polyreactivity

Lookup: // lookup polyreactivity (PSR sort gate) for QVQLVESGGGLVQAGGSLRLSCAASGSIFGYYAMGWYRQAPGKERELVAAIRVSGGRTYYADSVKGRFTISRDNAKNTVYLQMNSLKPEDTAVYYCAKSLIPAYEYWGQGTQVTVSS
Found: high polyreactivity
